The measurements presented in this section are drawn from patent US20260258115A1.

- ASSAY SYSTEM: RSV prefusion F (preF), DS-Cav1 (Respiratory Syncytial Virus)
- TEST NAME: BLI, IgG on anti-human IgG sensor, 100 nM antigen
QUANTITY NAME: pKd
Please report pKd as the negative decimal logarithm of the molar concentration, giving only the number.

Qu. Entry ADI-41166 (antibody, V domains shown) VH: EVQLVQSGAEVKKPGASVKVSCKTSGYTFTGDYLHWVRQAPGQGLEWMGRLNPKSGGTVYAQRFQGRVTMTGDTSVTTAYMQLTRLRSDDTAIYYCARGIPVSGPVSIDYWGQGTLVTVSS VL: QSVLTQPASLSGSPGQSITISCTGTSSDVGGYGYVSWYQQHPGKAPKLMIYDVANRPSGVSHRFSGSKSGNTASLTISGLQADDEADYYCSSYTRSNTVVFGGGTKLTVL : reported pKd = ?
Ans. 8.50

Qu. # input binder: ADI-41199 (antibody, V domains shown) VH: QVQLVESGGGLVKPGGSLRLSCGASGFTFPDYYMSWIRQAPGKGLEWLSYISSSSSFTDYADSVKGRFTISRDNAKKSLYLQMNSLRAEDTAVYYCARVRADYVGNSRIHFDYWGQGTLVTVSS VL: DIVMTQSPVTLSVSPGERATLSCRASQSLNGYLAWYQQKPGQAPRLLIYGASTRATEPGWDTSGRGSGTEFTLTISSLQSEDFAVYYCQQYNDWPFTFGQGTRLEIK ; wanted: its pKd
Ans. 8.76

Qu. Recorded pKd for ADI-41190 (antibody, V domains shown) VH: QVQLVQSGAEVKKPGASVKVSCKAFGYTFRSYDMQWVRQAPGQRLEWMGWINAVNGDTKYSQKFQGRVTITRDTSATTVYMELSSLRSEDTAVYYCARWGRFWNSRSLDYYAMDVWGQGTTVTVSS VL: DIVMTQSPGTLSLSPGERATLSCRASQSISSSYLVWYQHKPGQAPRLLIYGASTRATDIPDRFSGSGSGTDFTLTISRLEPEDFAVYYCQQYGSSPLTFGQGTRLEIK , please?
Ans. 8.64
